Listing of recorded pIC50 by entry.
measured on: FGFR1 IIIc (Homo sapiens, UniProt P11362)
Construct: host or cells: Cos-1
assay text: Cell based inhibition of transiently expressed FGFR1 IIIc phosphorylation (Cos-1 cells)
assay setup: Cos-1 cells, phospho-FGFR1; upper bound of bin; read-out: IC50
pIC50: −log10 of the molar value. Structures can show the parent of a compound that is named as a salt.

Worked examples follow.
Cc1cc(CNc2nccc(Nc3cc(-c4ccco4)[nH]n3)n2)on1 = > 5.00
c1ccc(COc2cc(Nc3ccnc(NCc4cc(C5CC5)no4)n3)n[nH]2)cc1 = > 6.70

Query COc1ccc(CCc2cc(Nc3ccnc(NCc4cc(C)no4)n3)n[nH]2)cc1 yields pIC50 of > 6.00

Query Cc1cc(CNc2nccc(Nc3cc(CCc4cccc(OCc5ccccc5)c4)n[nH]3)n2)on1 yields pIC50 of > 5.00

Query Cc1cc(CNc2nccc(Nc3cc(CCc4ccoc4)[nH]n3)n2)on1 yields pIC50 of > 6.00

Query COc1ccc(CCc2cc(Nc3ccnc(NCc4cc(C)no4)n3)n[nH]2)c(C)c1 yields pIC50 of > 6.00

Query Cc1cc(CNc2nccc(Nc3cc(OCc4cccc(C(F)(F)F)c4)[nH]n3)n2)on1 [Example 95, hydrochloride] yields pIC50 of > 5.00

Query COc1cc(COc2cc(Nc3ccnc(NCc4cc(C)no4)n3)n[nH]2)ccc1F [Example 100, hydrochloride] yields pIC50 of > 5.00

###

Listing of recorded IC50 by entry.
measured on: FGFR1 kinase (Homo sapiens)
assay text: Kinase assay (using Caliper technology)
Format: biochemical
assay setup: FGFR1 kinase, Caliper; upper bound of bin; read-out: IC50
Structures can show the parent of a compound that is named as a salt.

Worked examples follow.
COc1ccc(CCc2cc(Nc3ccnc(NCc4cc(C)no4)n3)n[nH]2)cc1 = < 1000 nM
Cc1cc(CNc2nccc(Nc3cc(OC(C)C)[nH]n3)n2)on1 = < 200 nM
Cc1cc(CNc2nccc(Nc3cc(CCc4ccc5c(c4)OCO5)[nH]n3)n2)on1 = < 1000 nM
COc1cc(CCc2cc(Nc3ccnc(NCc4cc(C)no4)n3)n[nH]2)c(F)cn1 [Example 62, hydrochloride] = < 1000 nM
COc1ncc(CCc2cc(Nc3ccnc(NCc4cc(C)no4)n3)n[nH]2)c(OC)n1 = < 1000 nM
CN(C)Cc1cc(CNc2nccc(Nc3cc(CCc4cccc(O)c4)n[nH]3)n2)on1 = < 200 nM
CNC(=O)c1cc(OC)cc(CCc2cc(Nc3ccnc(NCc4cc(C)no4)n3)n[nH]2)n1 = < 10000 nM
Cc1cc(CNc2nccc(Nc3cc(-c4cccs4)[nH]n3)n2)on1 = < 1000 nM
COc1cc(Nc2cc(OC(C)C)n[nH]2)nc(NCc2cc(C)no2)n1 = < 200 nM
COc1cc(COc2cc(Nc3ccnc(NCc4cc(C)no4)n3)n[nH]2)cc(OC)c1 = < 200 nM

Query CCOc1cc(Nc2ccnc(NCc3cc(C)no3)n2)n[nH]1 yields IC50 of < 200 nM

Query COc1cccc(CCc2cc(Nc3ccnc(NCc4cc(C(N)=O)no4)n3)[nH]n2)c1 yields IC50 of < 200 nM

Query COc1cccc(CCc2cc(Nc3ccnc(NCc4cc(C)no4)n3)n[nH]2)c1 yields IC50 of < 200 nM

###

measured on: FGFR kinase domain (Homo sapiens, UniProt P11362, C488A/C584S)
Construct: FGFR kinase domain (amino acids 458-765, C488A, C584S) N-terminally fused to a His6-tag; made in house
Sequence (P11362 458-765 C488A/C584S): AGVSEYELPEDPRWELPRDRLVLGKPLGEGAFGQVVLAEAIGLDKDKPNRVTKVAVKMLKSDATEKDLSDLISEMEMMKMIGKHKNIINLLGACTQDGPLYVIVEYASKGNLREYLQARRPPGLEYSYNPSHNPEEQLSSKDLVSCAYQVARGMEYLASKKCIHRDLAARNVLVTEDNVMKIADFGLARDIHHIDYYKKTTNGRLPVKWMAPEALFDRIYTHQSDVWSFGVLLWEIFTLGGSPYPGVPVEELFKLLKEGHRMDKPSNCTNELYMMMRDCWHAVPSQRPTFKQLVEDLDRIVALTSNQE
assay text: Kinase assay (ELISA) for inhibition of FGFR activity
Format: biochemical
assay setup: FGFR inhibition tests, ELISA kinase assay; read-out: Activity class
Description: To determine inhibition of FGFR activity, kinase assays were conducted using ELISA (Enzyme-Linked Immunosorbent Assay) technology. Kinase activity assays were performed in 384-well polypropylene plates (Matrix, 4311) with a total volume of 40 μl in each well. Each well was coated with 2 μg of polyEAY substrate (Sigma, P3899) at 4° C. overnight. […] The colour reaction was stopped by the addition of 20 μl 2M H2SO4 and the plates read at 450 nm on a Spectrafluor Plus (Tecan).
pIC50: −log10 of the molar value.
Listing of recorded pIC50 by entry.

CCOCCCc1cc(Nc2ccnc(NCc3cc(C)no3)n2)n[nH]1 = 6.00 to 7.00
CC(C)Oc1cc(Nc2ccnc(NCc3cc(C4CC4)no3)n2)n[nH]1 = > 7.00
CCOCCCc1cc(Nc2ccnc(NCc3cc(C4CC4)no3)n2)[nH]n1 = > 7.00

Now look at this entry.
Query CCOCCCc1cc(Nc2ccnc(NCc3cc(C(N)=O)no3)n2)[nH]n1 yields pIC50 of 6.00 to 7.00

###

measured on: FGFR1 kinase (Homo sapiens, UniProt P11362)
Sequence (P11362 22-822): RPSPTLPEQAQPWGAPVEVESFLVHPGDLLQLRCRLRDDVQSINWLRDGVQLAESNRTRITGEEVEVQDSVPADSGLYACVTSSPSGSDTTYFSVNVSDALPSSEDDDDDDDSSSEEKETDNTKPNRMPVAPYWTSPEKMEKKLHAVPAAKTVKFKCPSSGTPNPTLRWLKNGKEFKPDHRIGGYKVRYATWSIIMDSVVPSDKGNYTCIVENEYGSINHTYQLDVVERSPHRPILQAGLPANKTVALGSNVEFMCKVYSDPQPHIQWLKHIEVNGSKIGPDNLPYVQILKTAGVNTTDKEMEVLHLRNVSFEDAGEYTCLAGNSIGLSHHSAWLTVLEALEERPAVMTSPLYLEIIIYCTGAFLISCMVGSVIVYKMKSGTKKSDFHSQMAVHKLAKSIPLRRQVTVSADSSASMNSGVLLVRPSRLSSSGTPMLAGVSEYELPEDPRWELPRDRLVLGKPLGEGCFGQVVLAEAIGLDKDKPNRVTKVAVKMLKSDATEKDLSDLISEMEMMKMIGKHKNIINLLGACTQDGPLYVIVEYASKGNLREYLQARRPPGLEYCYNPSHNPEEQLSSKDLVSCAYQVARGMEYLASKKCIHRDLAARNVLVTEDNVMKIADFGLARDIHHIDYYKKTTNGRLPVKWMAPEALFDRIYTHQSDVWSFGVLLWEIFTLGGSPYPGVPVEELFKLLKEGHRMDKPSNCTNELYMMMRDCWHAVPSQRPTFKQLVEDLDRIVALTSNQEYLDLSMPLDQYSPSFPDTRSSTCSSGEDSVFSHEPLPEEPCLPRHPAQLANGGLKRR
assay text: Kinase assay (using Caliper technology)
Type: biochemical
assay setup: FGFR1 kinase, Caliper; upper bound of bin; read-out: IC50
Counter-ions that a name gives are not always drawn.
value type: IC50

Worked examples follow.
Cc1cc(CNc2nccc(Nc3cc(CCc4cccc(=O)[nH]4)[nH]n3)n2)on1 [Example 134, dihydrochloride] = < 10 µM
COc1cc(Cl)cc(CCc2cc(Nc3ccnc(NCc4cc(C(N)=O)no4)n3)[nH]n2)c1 = < 0.2 µM
Cc1cc(CNc2nccc(Nc3cc(OCc4cccc(NC(=O)OC(C)(C)C)c4)[nH]n3)n2)on1 = < 1 µM
Cc1cc(CNc2nccc(Nc3cc(CCc4cccc(OCc5ccccc5)c4)n[nH]3)n2)on1 = < 10 µM
CNC(=O)c1cc(CCc2cc(Nc3ccnc(NCc4cc(C)no4)n3)n[nH]2)cc(OC)c1 = < 0.2 µM

Here COc1cc(COc2cc(Nc3ccnc(NCc4cc(C)no4)n3)n[nH]2)c(F)cn1 was tested on FGFR1 kinase (Homo sapiens, UniProt P11362), and its IC50 came to < 0.2 µM

Here COc1ccc(CCc2cc(Nc3ccnc(NCc4cc(C)no4)n3)n[nH]2)s1 was tested on FGFR1 kinase (Homo sapiens, UniProt P11362), and its IC50 came to < 10 µM

Here Cc1cc(CNc2nccc(Nc3cc(OCc4cccc(OS(C)(=O)=O)c4)[nH]n3)n2)on1 was tested on FGFR1 kinase (Homo sapiens, UniProt P11362), and its IC50 came to < 1 µM

Here Cc1cc(CNc2nccc(Nc3cc(CCc4cccc(CN)c4)[nH]n3)n2)on1 was tested on FGFR1 kinase (Homo sapiens, UniProt P11362), and its IC50 came to < 1 µM

###

Listing of recorded IC50 by entry.
measured on: CYP2D6 (Homo sapiens, UniProt P10635)
assay text: in vitro
assay setup: pH 7.4, probe coumarin substrate (not named)

Worked examples follow.
CCCc1cc(Nc2nc(NCc3cc(C)no3)ncc2Br)n[nH]1 = > 10 µM
Cc1cc(Nc2nc(NCc3cc(C)no3)ncc2Br)[nH]n1 = > 10 µM

Query Cc1cc(CNc2nccc(Nc3cc(C)[nH]n3)n2)on1 yields IC50 of > 10 µM

###

Listing of recorded IC50 by entry.
measured on: FGFR1 IIIc (Homo sapiens, UniProt P11362)
Construct: host or cells: Cos-1
assay text: Cell based inhibition of transiently expressed FGFR1 IIIc phosphorylation via use of ECHO technology (Cos-1 cells)
assay setup: Cos-1 cells, phospho-FGFR1, ECHO dosing; upper bound of bin; read-out: IC50

Worked examples follow.
COc1ccc(CCc2cc(Nc3ccnc(NCc4cc(C5CC5)no4)n3)n[nH]2)cc1 [Example 25] = < 200 nM
COc1ccc(CCc2cc(Nc3ccnc(NCc4cc(C)no4)n3)n[nH]2)s1 [Example 129] = < 1000 nM
COc1ccnc(COc2cc(Nc3ccnc(NCc4cc(C)no4)n3)n[nH]2)c1 [Example 137] = < 30000 nM

Query Cc1cc(CNc2nccc(Nc3cc(CCc4cccc(CN)c4)[nH]n3)n2)on1 [Example 58] yields IC50 of < 30000 nM

Query COc1cc(CCc2cc(Nc3ccnc(NCc4cc(CN(C)C)no4)n3)n[nH]2)c(F)cn1 [Example 136] yields IC50 of < 10000 nM

###

measured on: FGFR1 IIIc (Homo sapiens)
Construct: host or cells: Cos-1
assay text: Cell based inhibition of transiently expressed FGFR1 IIIc phosphorylation (Cos-1 cells)
assay setup: Cos-1 cells, phospho-FGFR1; upper bound of bin; read-out: IC50
Counter-ions that a name gives are not always drawn.
Listing of recorded IC50 by entry.

COc1cccc(CCc2cc(Nc3ccnc(NCc4cc(C(N)=O)no4)n3)[nH]n2)c1 = < 10 µM
Cc1cc(CNc2nccc(Nc3cc(CCc4ccccc4OCc4ccccc4)[nH]n3)n2)on1 [Example 39, hydrochloride] = < 10 µM
Cc1cc(CNc2nccc(Nc3cc(OCc4cccc(OS(C)(=O)=O)c4)[nH]n3)n2)on1 = < 10 µM
Cc1cc(CNc2nccc(Nc3cc(CCc4cccc(OC(F)(F)F)c4)[nH]n3)n2)on1 = < 10 µM
CC(C)Oc1cc(Nc2ccnc(NCc3cc(C4CC4)no3)n2)n[nH]1 = < 0.2 µM

Query CN(C)Cc1cc(CNc2nccc(Nc3cc(CCc4cccc(O)c4)n[nH]3)n2)on1 yields IC50 of < 10 µM

Query Cc1cc(CNc2nccc(Nc3cc(COc4ccccc4)[nH]n3)n2)on1 yields IC50 of < 10 µM

Query c1cnc(-c2cc(CNc3nccc(Nc4cc(CCc5ccco5)[nH]n4)n3)on2)nc1 yields IC50 of < 10 µM

Query CC(C)Oc1cc(Nc2ccnc(NCc3cc(C(N)=O)no3)n2)[nH]n1 yields IC50 of < 10 µM

Query c1cc(Nc2cc(C3CCCC3)[nH]n2)nc(NCc2cc(C3CC3)no2)n1 yields IC50 of < 0.2 µM

Query COc1ccccc1CCc1cc(Nc2ccnc(NCc3cc(C)no3)n2)n[nH]1 [Example 31, hydrochloride] yields IC50 of < 10 µM

Query Cc1cc(CNc2nccc(Nc3cc(CCc4cccc(C(=O)N(C)C)c4)[nH]n3)n2)on1 yields IC50 of < 30 µM

Query COCCOc1cccc(CCc2cc(Nc3ccnc(NCc4cc(C)no4)n3)n[nH]2)c1 yields IC50 of < 10 µM
